assay: Growth inhibition of human CNS cancer cell by NCI-CLS assay; format: functional; settings: Cancer cell lines, read-out: LC50 (the source's name)
Measured quantity: CC50 (µM)
Enter your answer as a number in µM; do not include the unit.

The molecule listed as `O=C1Nc2cccc(Cl)c2/C1=C\c1ccc2ccc3ccc(/C=C4/C(=O)Nc5cccc(Cl)c54)nc3c2n1` shows CC50 equal to 77.6

`O=Cc1cccc(/C=C2/C(=O)Nc3c2ccc2ccccc32)n1` has a reported CC50 of 91.2

---
// `COc1ccc2c(c1)/C(=C\c1cc(C(C)(C)C)cc(/C=C3/C(=O)Nc4ccc(OC)cc43)c1O)C(=O)N2` : CC50 value = 66.1

The molecule `CC(C)(C)c1cc(/C=C2/C(=O)Nc3cccc(Cl)c32)c(O)c(/C=C2/C(=O)Nc3cccc(Cl)c32)c1` showed CC50 equal to 58.9

###

experiment: Growth inhibition of human leukemia cell by NCI-CLS assay; assay type: functional
Counter-ions that a name gives are not always drawn.
Lab note: anything with GI50 below 1000 nM is marked y; values at 1000 nM or higher are marked n.

I wonder whether `O=C1Nc2cccc(Cl)c2/C1=C\c1cccc(/C=C2/C(=O)Nc3cccc(Cl)c32)c1` has GI50 below 1000 nM. Can you tell?
n

API: query returns whether the molecule falls strictly under 1000 nM in GI50. Query: CC[C@]1(O)C[C@H]2CN(CCc3c([nH]c4ccccc34)[C@@](C(=O)OC)(c3cc4c(cc3OC)N(C=O)[C@H]3[C@@](O)(C(=O)OC)[C@H](OC(C)=O)[C@]5(CC)C=CCN6CC[C@]43[C@@H]65)C2)C1 [VINCRISTINE SULFATE]
y

Given `COc1ccc2c(c1)/C(=C\c1ccc3ccc4ccc(/C=C5/C(=O)Nc6ccc(OC)cc65)nc4c3n1)C(=O)N2` , is recorded GI50 strictly lower than 1000 nM?
n

Now let's try a different one.
In the record for `O=C1Nc2cc(OC(F)(F)F)ccc2/C1=C\c1cccc(/C=C2/C(=O)Nc3cc(OC(F)(F)F)ccc32)n1` , is GI50 less than 1000 nM?
y

###

Catalogue of compounds with associated CC50
assay: Growth inhibition of human ovarian cancer cell by NCI-CLS assay; format: functional; conditions: Cancer cell lines, read-out: LC50 (the source's name)
Provide the reading as a plain figure in µM.

CC50 in this record for `O=C1Nc2cccc(Cl)c2/C1=C\c1cccc(/C=C2/C(=O)Nc3cccc(Cl)c32)c1` : 41.7

The measured CC50 associated with `O=C1Nc2cccc(Cl)c2/C1=C\c1ccc2ccc3ccc(/C=C4/C(=O)Nc5cccc(Cl)c54)nc3c2n1` reads 70.8

CC50 reading for `CC(C)(C)c1cc(/C=C2/C(=O)Nc3cccc(Cl)c32)c(O)c(/C=C2/C(=O)Nc3cccc(Cl)c32)c1` : 44.7

---
Entry `O=C1Nc2c(ccc3ccccc23)/C1=C\c1cccc(/C=C2/C(=O)Nc3c2ccc2ccccc32)n1` ; CC50 = 91.2

###

assay: Growth inhibition of human breast cancer cell by NCI-CLS assay; assay type: functional; conditions: Cancer cell lines, read-out: LC50 (the source's name)
Measured quantity: CC50
# include the unit after the value

The molecule identified as `COc1ccc(OC)c2c1NC(=O)/C2=C/c1cccc(/C=C2/C(=O)Nc3c(OC)ccc(OC)c32)n1` registered its CC50 at 60.3 µM

The molecule identified as `COc1cc2c(c(OC)c1OC)/C(=C\c1cccc(/C=C3/C(=O)Nc4cc(OC)c(OC)c(OC)c43)n1)C(=O)N2` registered its CC50 at 24.6 µM

CC50 reported for this molecule `O=Cc1cccc(/C=C2/C(=O)Nc3c2ccc2ccccc32)n1` : 79.4 µM

CC50 reported for this molecule `CC(C)(C)c1cc(/C=C2/C(=O)Nc3cccc(Cl)c32)c(O)c(/C=C2/C(=O)Nc3cccc(Cl)c32)c1` : 67.6 µM

Short answer for `O=C1Nc2cccc(Cl)c2/C1=C\c1cccc(/C=C2/C(=O)Nc3cccc(Cl)c32)c1` : CC50 was 42.7 µM

---
Just so you know, measured CC50 for `O=C1Nc2c(ccc3ccccc23)/C1=C\c1cccc(/C=C2/C(=O)Nc3c2ccc2ccccc32)n1` came out at 97.7 µM

Looking up `O=C1Nc2cc(OC(F)(F)F)ccc2/C1=C\c1cccc(/C=C2/C(=O)Nc3cc(OC(F)(F)F)ccc32)n1` , I see its CC50 listed as 15.8 µM

Reported CC50 of `O=C1Nc2cccc(Cl)c2/C1=C\c1ccc2ccc3ccc(/C=C4/C(=O)Nc5cccc(Cl)c54)nc3c2n1` : 93.3 µM

For record `Cc1[nH]c(C)c(/C=C2/C(=O)Nc3ccc(F)cc32)c1/C=C1/C(=O)Nc2ccc(F)cc21` the listed CC50 is 70.8 µM

The molecule listed as `COc1ccc2c(c1)/C(=C\c1cc(C(C)(C)C)cc(/C=C3/C(=O)Nc4ccc(OC)cc43)c1O)C(=O)N2` has a reported CC50 of 63.1 µM

Per the record, `O=C1Nc2cccc(I)c2/C1=C\c1cccc(/C=C2/C(=O)Nc3cccc(I)c32)n1` has CC50 of 21.9 µM

###

# maps each entry to its log10(TGI)
test: Growth inhibition of human renal cancer cell by NCI-CLS assay; assay type: functional; details: Cancer cell lines
The figures below represent log10 of TGI, where TGI is stated in µM.

The reported log10(TGI) of the molecule `O=C1Nc2cccc(F)c2C1=Cc1cccc(C=C2C(=O)Nc3cccc(F)c32)n1` was 0.58

Memo: `O=Cc1cccc(/C=C2/C(=O)Nc3c2ccc2ccccc32)n1` , reported log10(TGI): 1.43

The value of log10(TGI) measured for the molecule `COc1ccc2c(c1)/C(=C\c1ccc3ccc4ccc(/C=C5/C(=O)Nc6ccc(OC)cc65)nc4c3n1)C(=O)N2` turned out to be 1.29

`O=C1Nc2cccc(I)c2/C1=C\c1cccc(/C=C2/C(=O)Nc3cccc(I)c32)n1` has a reported log10(TGI) of 0.41

Summary for this molecule, `COc1ccc2c(c1)/C(=C\c1ccccc1/C=C1/C(=O)Nc3ccc(OC)cc31)C(=O)N2` : log10(TGI) is 1.90

---
Lab note: `O=C1Nc2cc(OC(F)(F)F)ccc2/C1=C\c1cccc(/C=C2/C(=O)Nc3cc(OC(F)(F)F)ccc32)n1` gave log10(TGI) of -0.15

log10(TGI) recorded for this molecule, `COc1ccc2c(c1)/C(=C\c1cc(C(C)(C)C)cc(/C=C3/C(=O)Nc4ccc(OC)cc43)c1O)C(=O)N2` , is 1.35

GET /value?item= `COc1ccc(OC)c2c1NC(=O)/C2=C/c1cccc(/C=C2/C(=O)Nc3c(OC)ccc(OC)c32)n1` &field=log10(TGI) returns 0.40

Sure, the documented log10(TGI) for `COc1ccc2c(c1)/C(=C\c1cc(OC)c(O)c(-c3cc(/C=C4/C(=O)Nc5ccc(OC)cc54)cc(OC)c3O)c1)C(=O)N2` is 1.98

log10(TGI) for `O=C1Nc2c(ccc3ccccc23)/C1=C\c1cccc(/C=C2/C(=O)Nc3c2ccc2ccccc32)n1` is 1.62

For this molecule ( `CC(C)(C)c1cc(/C=C2/C(=O)Nc3cccc(Cl)c32)c(O)c(/C=C2/C(=O)Nc3cccc(Cl)c32)c1` ), measured log10(TGI) is 1.20

Short answer for `O=C1Nc2cccc(Cl)c2/C1=C\c1ccc2ccc3ccc(/C=C4/C(=O)Nc5cccc(Cl)c54)nc3c2n1` : log10(TGI) was 1.77

Query `Cc1[nH]c(C)c(/C=C2/C(=O)Nc3ccc(F)cc32)c1/C=C1/C(=O)Nc2ccc(F)cc21` yields log10(TGI) of 1.51

The measured log10(TGI) associated with `O=C1Nc2cccc(Cl)c2/C1=C\c1cccc(/C=C2/C(=O)Nc3cccc(Cl)c32)c1` reads 0.97

###

assay: Growth inhibition of human leukemia cell by NCI-CLS assay; assay type: functional
Reported GI50 values are given for each entry in this list.
Quick reminder: number only, in nM, skip the unit.

Here is how some compounds turned out for GI50.
// `O=C1Nc2cccc(F)c2C1=Cc1cccc(C=C2C(=O)Nc3cccc(F)c32)n1` : GI50 value = 800

get_value(item= `O=Cc1cccc(/C=C2/C(=O)Nc3c2ccc2ccccc32)n1` , readout=GI50) returns 2500

Record `O=C1Nc2cccc(I)c2/C1=C\c1cccc(/C=C2/C(=O)Nc3cccc(I)c32)n1` , field GI50: 900

So for `Cc1[nH]c(C)c(/C=C2/C(=O)Nc3ccc(F)cc32)c1/C=C1/C(=O)Nc2ccc(F)cc21` , the logged GI50 turned out to be 2400

Reported GI50 for `CC(C)(C)c1cc(/C=C2/C(=O)Nc3cccc(Cl)c32)c(O)c(/C=C2/C(=O)Nc3cccc(Cl)c32)c1` was 2800

Entry `O=C1Nc2c(ccc3ccccc23)/C1=C\c1cccc(/C=C2/C(=O)Nc3c2ccc2ccccc32)n1` — recorded GI50 = 1500

GI50 reported for this compound `COc1cc2c(c(OC)c1OC)/C(=C\c1cccc(/C=C3/C(=O)Nc4cc(OC)c(OC)c(OC)c43)n1)C(=O)N2` : 200

response.value for `COc1ccc2c(c1)/C(=C\c1ccccc1/C=C1/C(=O)Nc3ccc(OC)cc31)C(=O)N2` (field: GI50) = 5400

Now for the compound whose GI50 we want.
GI50 for `O=C1Nc2cccc(Cl)c2/C1=C\c1ccc2ccc3ccc(/C=C4/C(=O)Nc5cccc(Cl)c54)nc3c2n1` is 1100
